B1: PBXIP1 (parent)
chain: EKQKQPRWREGTKDSHDPLPSWAE

# Variants of: B1
# Assay Method Text: protein stability index of a GFP-peptide fusion (GPS, HEK-293T) (PSI 1-6); higher = more stable;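 further: lentivirally expressed fusions sorted by FACS into six bins by GFP to DsRed ratio, PSI derived from sequencing read proportions per bin multiplied by bin number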
# Test Context: c terminus: a fixed tail appended
Parameter: protein stability index
Form field (numeric): enter value without unit.

T12K
2.38

### Prompt Provide only the value of recorded protein stability index for `E10T`
### Response 3.55

### Prompt # return recorded protein stability index for input `H16Y`
### Response 1.39

### Prompt Please report the measured protein stability index for `P20D`
### Response 1.79

### Prompt Give reported protein stability index value for `Q5P`
### Response 1.68

### Prompt Please give the documented protein stability index of `W22R`
### Response 5.4

### Prompt Assign protein stability index to the following record: `E10I`
### Response 2.1

Reference source: the supplement of paper PMC10567573
